Molecular target: HiBiT-BRM (Homo sapiens, UniProt P51531)
Construct: expressed in transfected cells
Sequence (P51531 whole entry): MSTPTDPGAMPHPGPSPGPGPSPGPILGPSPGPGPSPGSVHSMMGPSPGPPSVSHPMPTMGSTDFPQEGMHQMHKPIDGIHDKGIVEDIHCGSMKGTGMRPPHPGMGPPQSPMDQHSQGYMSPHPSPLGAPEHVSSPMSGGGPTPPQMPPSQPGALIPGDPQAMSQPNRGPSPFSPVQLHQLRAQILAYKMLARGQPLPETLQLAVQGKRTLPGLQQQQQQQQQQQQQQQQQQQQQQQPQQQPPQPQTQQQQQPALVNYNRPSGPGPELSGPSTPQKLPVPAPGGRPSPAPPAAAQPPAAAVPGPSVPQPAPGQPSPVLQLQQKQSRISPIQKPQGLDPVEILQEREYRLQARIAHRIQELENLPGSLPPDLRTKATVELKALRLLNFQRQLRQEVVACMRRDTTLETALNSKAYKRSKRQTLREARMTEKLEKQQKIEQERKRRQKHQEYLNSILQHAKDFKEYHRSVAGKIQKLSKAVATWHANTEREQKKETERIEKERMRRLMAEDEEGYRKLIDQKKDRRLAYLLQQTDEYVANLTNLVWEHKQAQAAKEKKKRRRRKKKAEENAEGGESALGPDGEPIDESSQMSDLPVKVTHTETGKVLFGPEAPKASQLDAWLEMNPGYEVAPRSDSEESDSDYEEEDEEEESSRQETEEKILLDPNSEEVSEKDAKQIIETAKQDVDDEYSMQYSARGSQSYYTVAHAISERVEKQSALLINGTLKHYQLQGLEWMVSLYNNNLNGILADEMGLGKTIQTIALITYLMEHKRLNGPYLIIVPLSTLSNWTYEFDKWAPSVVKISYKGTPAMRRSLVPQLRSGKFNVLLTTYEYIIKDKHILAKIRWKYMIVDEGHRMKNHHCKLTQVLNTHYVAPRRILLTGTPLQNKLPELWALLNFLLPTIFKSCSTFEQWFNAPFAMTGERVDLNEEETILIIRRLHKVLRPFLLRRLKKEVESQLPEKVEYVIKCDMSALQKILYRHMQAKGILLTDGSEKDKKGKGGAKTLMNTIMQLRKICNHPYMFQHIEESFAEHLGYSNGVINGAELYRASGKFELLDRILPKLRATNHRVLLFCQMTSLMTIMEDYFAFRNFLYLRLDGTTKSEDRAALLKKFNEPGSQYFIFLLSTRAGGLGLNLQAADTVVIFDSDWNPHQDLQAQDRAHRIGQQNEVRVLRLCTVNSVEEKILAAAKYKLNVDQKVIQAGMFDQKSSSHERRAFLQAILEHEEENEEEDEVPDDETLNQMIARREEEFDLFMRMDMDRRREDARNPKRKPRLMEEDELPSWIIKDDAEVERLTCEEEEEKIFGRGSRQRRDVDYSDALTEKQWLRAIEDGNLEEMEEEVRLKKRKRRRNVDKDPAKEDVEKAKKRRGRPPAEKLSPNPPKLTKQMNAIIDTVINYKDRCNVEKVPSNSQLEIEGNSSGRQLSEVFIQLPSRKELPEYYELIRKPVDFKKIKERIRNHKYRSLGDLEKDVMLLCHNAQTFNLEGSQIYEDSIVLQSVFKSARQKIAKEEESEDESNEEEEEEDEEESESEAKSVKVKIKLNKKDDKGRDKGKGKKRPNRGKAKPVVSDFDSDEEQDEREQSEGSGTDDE
Experiment: HiBiT-BRM cell-based degradation assay (Nano-Glo HiBiT Lytic Detection)
Conditions: HeLa cells expressing HiBiT-BRM, 24 h; read-out: BRM HiBit Degradation IC50
Could you please report measured DC50 for the items listed next?

Take each entry in turn and give its DC50.
1. Cc1ncsc1-c1ccc([C@H](C)NC(=O)[C@@H]2C[C@@H](O)CN2C(=O)[C@@H](c2cc(OCCN3CCC(CC(=O)NCc4ccc(CCOc5cc(-c6ccccc6O)nnc5N)cc4)CC3)no2)C(C)C)cc1 [Compound 177]
2. Cc1ncsc1-c1ccc(CNC(=O)[C@@H]2C[C@@H](O)CN2C(=O)[C@@H](NC(=O)CN2CCN(CCOc3cc(N4[C@@H]5CC[C@H]4CN(c4cc(-c6ccccc6O)nnc4N)C5)ccn3)CC2)C(C)(C)C)cc1 [Compound 233]

**Result**
1: > 100 nM; 2: > 10 nM

----------
Molecular target: HiBit-BRG1 (Homo sapiens, UniProt P51532)
Construct: expressed in transfected cells
Sequence (P51532 whole entry): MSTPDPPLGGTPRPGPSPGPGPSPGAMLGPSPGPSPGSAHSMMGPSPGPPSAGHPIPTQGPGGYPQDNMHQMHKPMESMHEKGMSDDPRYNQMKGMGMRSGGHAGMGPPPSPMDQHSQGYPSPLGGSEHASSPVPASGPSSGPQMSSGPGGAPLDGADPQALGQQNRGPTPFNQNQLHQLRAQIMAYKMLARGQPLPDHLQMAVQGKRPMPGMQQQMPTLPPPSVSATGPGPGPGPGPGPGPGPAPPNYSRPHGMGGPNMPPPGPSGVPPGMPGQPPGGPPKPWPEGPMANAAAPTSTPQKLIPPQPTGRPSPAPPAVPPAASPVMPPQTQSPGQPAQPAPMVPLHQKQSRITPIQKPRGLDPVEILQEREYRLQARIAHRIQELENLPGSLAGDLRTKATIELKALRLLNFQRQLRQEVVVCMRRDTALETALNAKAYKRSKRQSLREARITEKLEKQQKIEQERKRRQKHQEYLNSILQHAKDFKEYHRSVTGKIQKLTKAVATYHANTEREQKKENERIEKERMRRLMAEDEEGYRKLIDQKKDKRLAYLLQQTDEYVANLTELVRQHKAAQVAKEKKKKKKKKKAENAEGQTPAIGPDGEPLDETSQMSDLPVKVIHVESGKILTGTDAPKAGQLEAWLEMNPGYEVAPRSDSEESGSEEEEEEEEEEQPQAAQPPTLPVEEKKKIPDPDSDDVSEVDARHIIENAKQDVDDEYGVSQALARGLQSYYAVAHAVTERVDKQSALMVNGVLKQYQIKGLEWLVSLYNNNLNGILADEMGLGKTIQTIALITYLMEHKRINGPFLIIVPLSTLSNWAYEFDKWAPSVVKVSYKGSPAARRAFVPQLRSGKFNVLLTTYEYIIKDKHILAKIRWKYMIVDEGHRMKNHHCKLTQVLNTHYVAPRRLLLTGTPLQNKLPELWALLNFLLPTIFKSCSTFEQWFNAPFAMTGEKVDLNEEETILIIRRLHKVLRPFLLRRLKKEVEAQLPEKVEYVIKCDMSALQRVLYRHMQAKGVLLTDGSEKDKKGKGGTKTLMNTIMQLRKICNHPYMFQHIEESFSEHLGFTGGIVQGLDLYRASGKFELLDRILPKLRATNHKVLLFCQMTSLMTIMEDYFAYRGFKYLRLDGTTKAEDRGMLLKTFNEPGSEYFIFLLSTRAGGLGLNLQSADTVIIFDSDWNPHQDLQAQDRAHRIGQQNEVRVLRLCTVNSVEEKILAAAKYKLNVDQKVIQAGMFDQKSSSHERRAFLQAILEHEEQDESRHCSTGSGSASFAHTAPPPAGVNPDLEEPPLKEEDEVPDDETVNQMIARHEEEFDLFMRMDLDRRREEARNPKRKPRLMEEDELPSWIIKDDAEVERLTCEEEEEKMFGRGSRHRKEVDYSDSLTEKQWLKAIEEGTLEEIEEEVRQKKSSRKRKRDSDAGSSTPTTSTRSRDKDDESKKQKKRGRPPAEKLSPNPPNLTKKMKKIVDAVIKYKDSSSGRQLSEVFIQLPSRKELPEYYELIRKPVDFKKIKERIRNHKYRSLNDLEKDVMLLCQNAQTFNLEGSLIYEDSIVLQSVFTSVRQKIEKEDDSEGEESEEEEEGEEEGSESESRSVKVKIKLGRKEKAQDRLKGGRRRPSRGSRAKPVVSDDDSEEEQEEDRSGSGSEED
Assay: HiBit-BRG1 cell-based degradation assay (Nano-Glo HiBiT Lytic Detection)
Conditions: HeLa cells expressing HiBit-BRG1 and LgBit, 24 h; read-out: BRG1 HiBit Degradation IC50
Can you tell me DC50 for the items I'm about to list?

Reference set (4 entries):
>  <compound>
Nc1nnc(-c2ccccc2O)cc1N1CCN(CC(=O)N2CC(COc3ccc4c(c3)C(=O)N(C3CCC(=O)NC3=O)C4=O)C2)CC1 (centres unmarked) [Compound 81]

>  <experimentalReadout>
DC50

>  <endpointResult>
> 1 µM

$$$$
>  <compound>
CCN(CCc1ccc(C(=O)NCCCCCCCCCC(=O)N[C@H](C(=O)N2C[C@H](O)C[C@H]2C(=O)NCc2ccc(-c3scnc3C)cc2)C(C)(C)C)cc1)c1cc(-c2ccccc2O)nnc1N (racemic) [Compound 144]

>  <experimentalReadout>
DC50

>  <endpointResult>
> 1 µM

$$$$
>  <compound>
Cc1ncsc1-c1ccc([C@H](C)NC(=O)[C@@H]2C[C@@H](O)CN2C(=O)[C@@H](NC(=O)CCN2CCC(OC3CCN(CCC(=O)NCc4ccc(CCOc5cc(-c6ccccc6O)nnc5N)cc4)CC3)CC2)C(C)(C)C)cc1 [Compound 249]

>  <experimentalReadout>
DC50

>  <endpointResult>
> 1 µM

$$$$
>  <compound>
Nc1nnc(-c2ccccc2O)cc1OCCc1ccc(CNCCN2CCN(c3ccc4c(c3)C(=O)N(C3CCC(=O)NC3=O)C4=O)CC2)cc1 (centres unmarked) [Compound 3]

>  <experimentalReadout>
DC50

>  <endpointResult>
> 1 µM

$$$$

Please go through the list and note DC50 for each compound.
1. Nc1nnc(-c2ccccc2O)cc1OCCc1ccc(C(=O)NCCS(=O)(=O)CCNc2cccc3c2C(=O)N(C2CCC(=O)NC2=O)C3=O)cc1 (centres unmarked) [Compound 55]
2. Cc1ncsc1-c1ccc(CNC(=O)[C@@H]2C[C@@H](O)CN2C(=O)[C@@H](NC(=O)CCN2CC(OC3CCN(C(=O)c4ccc(CCOc5cc(-c6ccccc6O)nnc5N)cc4)CC3)C2)C(C)(C)C)cc1 [Compound 238]
3. Cc1ncsc1-c1ccc(CNC(=O)[C@@H]2C[C@@H](O)CN2C(=O)[C@@H](NC(=O)CCN2CC(C3CN(C(=O)c4ccc(CCOc5cc(-c6ccccc6O)nnc5N)cc4)C3)C2)C(C)(C)C)cc1 [Compound 224]
4. Nc1nnc(-c2ccccc2O)cc1OCCc1ccc(CNC(=O)CCCCNc2ccc3c(c2)C(=O)N(C2CCC(=O)NC2=O)C3=O)cc1 (centres unmarked) [Compound 154]
5. Cc1ncsc1-c1ccc(CNC(=O)[C@@H]2C[C@@H](O)CN2C(=O)[C@@H](NC(=O)CCN2CCC3(CC2)CCN(C(=O)c2ccc(CCOc4cc(-c5ccccc5O)nnc4N)cc2)CC3)C(C)(C)C)cc1 [Compound 201]
6. Nc1nnc(-c2ccccc2O)cc1OCCc1ccc(CNC(=O)CCCCNc2ccc3nnn(C4CCC(=O)NC4=O)c(=O)c3c2)cc1 (centres unmarked) [Compound 125]

**Result**
1: > 1 µM; 2: > 1 µM; 3: > 1 µM; 4: > 1 µM; 5: > 1 µM; 6: > 1 µM

**Query** Recorded DC50 of Nc1nnc(-c2ccccc2O)cc1N1CCN(CCNC(=O)CCCCCCCCCCNc2ccc3c(c2)C(=O)N(C2CCC(=O)NC2=O)C3=O)CC1 (centres unmarked) [Compound 99] , please.
**Result** > 1 µM

----------
Target: HiBiT-BRM (Homo sapiens)
Construct: expressed in transfected cells
Assay: HiBiT-BRM cell-based degradation assay (Nano-Glo HiBiT Lytic Detection)
Conditions: HeLa cells expressing HiBiT-BRM, 24 h; read-out: BRM HiBit Degradation IC50
experimentalReadout: DC50

Worked examples follow.
>  <molecule>
Nc1nnc(-c2ccccc2O)cc1OCCc1ccc(C(=O)NCCS(=O)(=O)CCNc2cccc3c2C(=O)N(C2CCC(=O)NC2=O)C3=O)cc1 (centres unmarked) [Compound 55]

>  <endpointResult>
> 1 µM

$$$$
>  <molecule>
Cc1ncsc1-c1ccc(CNC(=O)[C@@H]2C[C@@H](O)CN2C(=O)[C@@H](NC(=O)CCN2CCC(CC(=O)NCc3ccc(CCOc4cc(-c5ccccc5O)nnc4N)cc3)CC2)C(C)(C)C)cc1 [Compound 181]

>  <endpointResult>
> 1 µM

$$$$
>  <molecule>
Cc1ncsc1-c1ccc([C@H](C)NC(=O)[C@@H]2C[C@@H](O)CN2C(=O)[C@@H](NC(=O)CCCCCCCCC(=O)NCc2ccc(CCOc3cc(-c4ccccc4O)nnc3N)cc2)C(C)(C)C)cc1 [Compound 257]

>  <endpointResult>
> 0.01 µM

$$$$
>  <molecule>
Nc1nnc(-c2ccccc2O)cc1OCCc1ccc(CNC(=O)CCCCCCCCNc2cccc3c2C(=O)N(C2CCC(=O)NC2=O)C3=O)cc1 (centres unmarked) [Compound 71]

>  <endpointResult>
> 1 µM

$$$$

**Query** Checklist item: DC50 tested on HiBiT-BRM (Homo sapiens), entry Nc1nnc(-c2ccccc2O)cc1OCCc1ccc(C(=O)NCCCCCC(=O)NCc2ccc(S(=O)(=O)Nc3cccc4c(Cl)c[nH]c34)cc2)cc1 [Compound 14] , value?
**Result** > 1 µM

----------
Target: HiBiT-BRM (Homo sapiens, UniProt P51531)
Construct: expressed in transfected cells
Test: HiBiT-BRM cell-based degradation assay (Nano-Glo HiBiT Lytic Detection)
Conditions: HeLa cells expressing HiBiT-BRM, 24 h; read-out: BRM HiBit Degradation IC50
experimentalReadout: DC50

Would you please look over these solved cases?
>  <compound>
Cc1ncsc1-c1ccc(CNC(=O)[C@@H]2C[C@@H](O)CN2C(=O)[C@@H](NC(=O)CCN2CC3CN(C(=O)c4ccc(CCOc5cc(-c6ccccc6O)nnc5N)cc4)CC32)C(C)(C)C)cc1 (stereo partly drawn)

>  <DC50>
> 1000 nM

$$$$
>  <compound>
Nc1nnc(-c2ccccc2O)cc1OCCc1ccc(CNC(=O)CCCCCOc2cccc3c2C(=O)N(C2CCC(=O)NC2=O)C3=O)cc1 (stereo not drawn)

>  <DC50>
> 100 nM

$$$$

Read the next record carefully.
**Query** Could you tell me which DC50 is on file for Cc1ncsc1-c1ccc([C@H](C)NC(=O)[C@@H]2C[C@@H](O)CN2C(=O)[C@@H](c2cc(OCCN3CCC4(CC3)CC(C(=O)NCc3ccc(CCOc5cc(-c6ccccc6O)nnc5N)cc3)C4)no2)C(C)C)cc1 ?
**Result** > 10 nM

----------
Target: HiBiT-BRM (Homo sapiens)
Construct: expressed in transfected cells
Test: HiBiT-BRM cell-based degradation assay (Nano-Glo HiBiT Lytic Detection)
Conditions: HeLa cells expressing HiBiT-BRM, 24 h; read-out: BRM HiBit Degradation IC50
experimentalReadout: DC50

>  <compound>
Cc1ncsc1-c1ccc(CNC(=O)[C@@H]2C[C@@H](O)CN2C(=O)[C@@H](NC(=O)CCN2CC3CN(C(=O)c4ccc(CCOc5cc(-c6ccccc6O)nnc5N)cc4)C3C2)C(C)(C)C)cc1 (some centres unmarked) [Compound 241]

>  <DC50>
> 1000 nM

$$$$
>  <compound>
Cc1ncsc1-c1ccc([C@H](C)NC(=O)[C@@H]2C[C@@H](O)CN2C(=O)[C@@H](NC(=O)CCCCCCCCCCCCC(=O)NCc2ccc(CCOc3cc(-c4ccccc4O)nnc3N)cc2)C(C)(C)C)cc1 [Compound 248]

>  <DC50>
> 10 nM

$$$$

# map each compound to its DC50
1. Cc1ncsc1-c1ccc(CNC(=O)[C@@H]2C[C@@H](O)CN2C(=O)[C@@H](NC(=O)CCN2CCN(CCC(=O)NCc3ccc(CCOc4cc(-c5ccccc5O)nnc4N)cc3)CC2)C(C)(C)C)cc1 [Compound 189]
2. Cc1ncsc1-c1ccc(CNC(=O)[C@@H]2C[C@@H](O)CN2C(=O)[C@@H](NC(=O)CCCCCCCCC(=O)NCc2ccc(CCNc3cc(-c4ccccc4O)nnc3N)cc2)C(C)(C)C)cc1 [Compound 140]

**Result**
1: > 1000 nM; 2: > 100 nM

**Query** Return reported DC50; argument: Nc1nnc(-c2ccccc2O)cc1OCCc1ccc(CNCCCCCNc2cccc3nnn(C4CCC(=O)NC4=O)c(=O)c23)cc1 (centres unmarked) [Compound 120]
**Result** > 100 nM
